The reported measurements were obtained from patent US20090048295A1.

Biological target: C5a receptor (Homo sapiens)
Sequence (P21730 1-350): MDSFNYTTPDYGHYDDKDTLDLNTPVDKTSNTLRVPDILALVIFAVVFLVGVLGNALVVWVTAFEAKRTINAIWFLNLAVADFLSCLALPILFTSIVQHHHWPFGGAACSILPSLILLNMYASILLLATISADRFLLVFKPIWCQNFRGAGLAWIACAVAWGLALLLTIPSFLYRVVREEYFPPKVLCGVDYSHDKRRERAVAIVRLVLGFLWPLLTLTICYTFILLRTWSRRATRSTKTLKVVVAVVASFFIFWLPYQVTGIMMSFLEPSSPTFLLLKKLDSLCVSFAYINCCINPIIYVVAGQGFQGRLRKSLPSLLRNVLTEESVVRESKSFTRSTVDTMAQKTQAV
Test: [125I]-C5a Radioligand Binding Assay (competition binding, differentiated U937 cells)
Conditions: test compound 10 μM; [125I]-C5a 0.05 nM; U937 cells; multiple values = duplicate experiments
Label scheme for [125I]-C5a Binding % Inhibition 10 μM: lower than 80% is not satisfied, 80% and above is satisfied.

Hi, just wondering whether CCc1ccccc1-c1cc(OC)c2c(n1)CCCC2N(CC)c1cccc2ccccc12 (racemic) shows [125I]-C5a Binding % Inhibition 10 μM of 80% or higher. satisfied

Is reported [125I]-C5a Binding % Inhibition 10 μM greater than or equal to 80% here: CCc1cccc(CC)c1-c1cc(Cl)c2c(n1)CCCC2N(CC)c1cccc2ccccc12 (centres unmarked) satisfied

State whether the measured [125I]-C5a Binding % Inhibition 10 μM reaches 80%, counting equality as reaching it, for CCc1cccc(CC)c1-c1cc(OC)c2c(n1)CCCC2N(C)CCc1ccccc1 (centres unmarked) not satisfied

Please indicate if the recorded [125I]-C5a Binding % Inhibition 10 μM for CCc1cccc(CC)c1-c1cc(OC)c2c(n1)CCCC2N(C)c1cccc2cc(OC)ccc12 (centres unmarked) meets or exceeds 80%. satisfied

I'd appreciate it if you could say whether CCN(c1cccc2ccccc12)C1CCCc2nc(-c3ccccc3F)cc(OC)c21 (centres unmarked) has [125I]-C5a Binding % Inhibition 10 μM at least equal to 80%. not satisfied

For this compound, is measured [125I]-C5a Binding % Inhibition 10 μM 80% or higher? CCc1cccc(CC)c1-c1cc(OC)c2c(n1)CCCC2N1Cc2ccccc2C1 (centres unmarked) not satisfied

Entry CCc1cccc(CC)c1-c1cc(OC)c2c(n1)CCCC2Nc1cccc2ccccc12 (centres unmarked) [Compound 103] : is its [125I]-C5a Binding % Inhibition 10 μM no less than 80%? not satisfied

* * *

Molecular target: C5a receptor (Homo sapiens, UniProt P21730)
Sequence (P21730 1-350): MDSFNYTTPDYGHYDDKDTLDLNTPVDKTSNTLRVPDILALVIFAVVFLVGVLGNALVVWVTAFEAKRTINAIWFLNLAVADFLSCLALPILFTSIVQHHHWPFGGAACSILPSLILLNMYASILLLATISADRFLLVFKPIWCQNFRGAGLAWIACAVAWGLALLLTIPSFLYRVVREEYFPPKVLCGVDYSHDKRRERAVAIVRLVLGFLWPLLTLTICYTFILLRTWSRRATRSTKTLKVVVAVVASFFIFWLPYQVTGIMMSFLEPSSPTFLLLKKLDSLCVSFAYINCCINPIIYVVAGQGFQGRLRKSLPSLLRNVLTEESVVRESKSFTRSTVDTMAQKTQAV
Test: [125I]-C5a Radioligand Binding Assay (competition binding, differentiated U937 cells)
Conditions: test compound 10 μM; [125I]-C5a 0.05 nM; U937 cells; multiple values = duplicate experiments
quantity name: [125I]-C5a Binding % Inhibition 10 μM (%)
Please give a number only; it is taken to be in %.

Return value of [125I]-C5a Binding % Inhibition 10 μM for input CCc1cccc(CC)c1-c1cc(OC)c2c([n+]1[O-])CCCC2N(CC)c1cccc2ccccc12 (racemic) [Compound 19] , no commentary. 98

Indicate its recorded [125I]-C5a Binding % Inhibition 10 μM; the compound in question is CCc1cccc(CC)c1-c1cc(OC)c2c(n1)CCCC2N(CC)Cc1ccccc1 (centres unmarked) [Compound 85] 79

Return reported [125I]-C5a Binding % Inhibition 10 μM. Input compound: CCc1cccc(CC)c1-c1cc(OC)c2c(n1)CCCC2N(C)Cc1cccc2ccccc12 (centres unmarked) [Compound 90] 84

Specify measured [125I]-C5a Binding % Inhibition 10 μM for COc1cccc(N(C)C2CCCc3nc(-c4c(C)cccc4C)cc(OC)c32)c1C (centres unmarked) [Compound 117] . 85

Using the record for CCc1cccc(CC)c1-c1cc(OC)c2c(n1)CCCC2N(C)C1CCCc2ccccc21 (centres unmarked) [Compound 83] , state its measured [125I]-C5a Binding % Inhibition 10 μM. 71

Look up and state reported [125I]-C5a Binding % Inhibition 10 μM for CCc1cccc(CC)c1-c1cc(OC)c2c(n1)CCCC2N(C)c1ccccc1 (centres unmarked) [Compound 82] 76

Look up [125I]-C5a Binding % Inhibition 10 μM of CCc1cccc(CC)c1-c1cc(OC)c2c(n1)CCCC2Nc1cc(OC)ccc1C (centres unmarked) [Compound 11] and report it. 97

Give recorded [125I]-C5a Binding % Inhibition 10 μM. CCc1cccc(CC)c1-c1cc(OC)c2c(n1)CCC[C@H]2N(CC)c1cccc2ccccc12 [Compound 4] 101

Respond only with [125I]-C5a Binding % Inhibition 10 μM recorded for COc1cc(-c2c(C)cccc2C)nc2c1C(N(C)c1cccc3[nH]ccc13)CCC2 (centres unmarked) [Compound 113] 54

Please give the documented [125I]-C5a Binding % Inhibition 10 μM of CCc1cccc(CC)c1-c1cc(OC)c2c(n1)CCCC2N(C)C1Cc2ccccc2C1 (centres unmarked) [Compound 95] 80

Complete the entry with [125I]-C5a Binding % Inhibition 10 μM for CCc1cccc(CC)c1-c1cc(OC)c2c(n1)CCCC2N(C)CCCc1ccccc1 (centres unmarked) [Compound 91] 60

Return reported [125I]-C5a Binding % Inhibition 10 μM. Input compound: CCc1cccc(CC)c1-c1cc(OC)c2c(n1)CCCC2N1CCc2cccc(C(F)(F)F)c2C1 (centres unmarked) [Compound 26] 99

Entry CCN(c1cccc2ccccc12)C1CCCc2nc(-c3cccc4ccccc34)cc(OC)c21 (centres unmarked) [Compound 78] needs its [125I]-C5a Binding % Inhibition 10 μM filled in; supply it. 95

Tell us which [125I]-C5a Binding % Inhibition 10 μM value is on record for CCc1cccc(CC)c1-c1cc(OC)c2c(n1)CCC[C@@H]2N(C)[C@@H]1CCCc2ccccc21 [Compound 59] 89

Note down [125I]-C5a Binding % Inhibition 10 μM recorded for CCc1cccc(CC)c1-c1cc(OC)c2c(n1)CCC[C@@H]2N(C)[C@H]1CCCc2ccccc21 [Compound 77] 72

Report measured [125I]-C5a Binding % Inhibition 10 μM; entry is CCc1cccc(CC)c1-c1cc(OC)c2c(n1)CCCC2Nc1cccc2ccccc12 (centres unmarked) [Compound 132] 34

Consider the compound CCN(c1cccc2ccccc12)C1CCCc2nc(-c3c(OC)cccc3OC)cc(OC)c21 (centres unmarked) [Compound 58] and give its recorded [125I]-C5a Binding % Inhibition 10 μM. 88

* * *

Target: C5a receptor (Homo sapiens, UniProt P21730)
Sequence (P21730 1-350): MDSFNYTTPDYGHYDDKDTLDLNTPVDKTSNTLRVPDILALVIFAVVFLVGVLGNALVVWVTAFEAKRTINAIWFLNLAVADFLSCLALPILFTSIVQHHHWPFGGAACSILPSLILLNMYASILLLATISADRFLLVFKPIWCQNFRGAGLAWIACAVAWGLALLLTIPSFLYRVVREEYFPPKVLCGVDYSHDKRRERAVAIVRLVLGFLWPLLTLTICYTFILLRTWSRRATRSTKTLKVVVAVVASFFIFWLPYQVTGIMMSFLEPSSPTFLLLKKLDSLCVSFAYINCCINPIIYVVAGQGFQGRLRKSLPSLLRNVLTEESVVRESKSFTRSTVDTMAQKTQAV
Assay: [125I]-C5a Radioligand Binding Assay (competition binding, differentiated U937 cells);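 also: cells preincubated with compound 30 min at room temperature, then 60 min at 4 °C with radioligand, bound counts read by scintillation, nonspecific binding defined with 100 nM C5a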
Details: read-out: [125I]-C5a Binding % Inhibition 10 μM, test compound 10 μM; [125I]-C5a 0.05 nM; U937 cells; multiple values = duplicate experiments
quantity name: inhibition at 10 µM (%)
Number only, in %; omit the unit.

Determine from records and report inhibition at 10 µM for CCc1cccc(CC)c1-c1cc(OC)c2c(n1)CCCC2N(C)C1CCCCC1 (centres unmarked) 33

State, in one line, measured inhibition at 10 µM of COc1ccc(C)c(N(C)C2CCCc3nc(-c4c(C)cccc4C)cc(OC)c32)c1 (centres unmarked) 85

Provide measured inhibition at 10 µM value, entry: CCc1cccc(CC)c1-c1cc(OC)c2c(n1)CCCC2N(CC)c1cccc2ccccc12 (racemic) 97

Kindly indicate its recorded inhibition at 10 µM. Item: CCc1cccc(CC)c1-c1cc(OC)c2c(n1)CCCC2Nc1cc(-c2ccccc2)ccc1C (centres unmarked) 88

State, in one line, measured inhibition at 10 µM of CCc1cccc(CC)c1-c1cc(OC)c2c(n1)CCCC2N(C)Cc1cccc2ccccc12 (centres unmarked) 86

Return the recorded inhibition at 10 µM value; entry: CCc1cccc(CC)c1-c1cc(OC)c2c(n1)CCCC2N(C)c1cccc2c(OC)cccc12 (centres unmarked) 77

Supply recorded inhibition at 10 µM for CCc1cccc(CC)c1-c1cc(OC)c2c(n1)CCCC2N1CCc2cc(C(=O)O)ccc2C1 (centres unmarked) here. -9

Give inhibition at 10 µM for the following molecule: CCN(c1cccc2ccccc12)C1CCCc2nc(-c3ccccc3C)cc(OC)c21 (centres unmarked) 82

Item CCc1cccc(CC)c1-c1cc(OC)c2c(n1)CCCC2N(C)Cc1ccccc1 (centres unmarked) : provide inhibition at 10 µM 39

Provide one value: measured inhibition at 10 µM of CCc1cccc(CC)c1-c1cc(OC)c2c(n1)CCCC2N1CCc2cccc(C(=O)O)c2C1 (centres unmarked) -13

Identify inhibition at 10 µM associated with the molecule CCc1cccc(CC)c1-c1cc(OC)c2c(n1)CCCC2N(C)c1cccc2ccccc12 (racemic) [Compound 20] 93

// Input: CCN(c1cccc2ccccc12)C1CCCc2nc(-c3ccsc3)cc(OC)c21 (centres unmarked) . Output its inhibition at 10 µM only. 40

Name the recorded inhibition at 10 µM of the item CCc1cccc(CC)c1-c1cc(OC)c2c(n1)CCCC2N(C)c1ccccc1 (centres unmarked) in your answer. 81

Give inhibition at 10 µM for CCc1cccc(CC)c1-c1cc(OC)c2c(n1)CCCC2N1CCc2ccc(C(=O)OC)cc2C1 (centres unmarked) 59

Answer with the recorded inhibition at 10 µM for the molecule listed here: CCc1cccc(CC)c1-c1cc(SC)c2c(n1)CCCC2N(CC)c1cccc2ccccc12 (centres unmarked) 94

Given CCc1cccc(CC)c1-c1cc(OC)c2c(n1)CCCC2N(C)c1cc(OC)ccc1OC (centres unmarked) , respond with its inhibition at 10 µM. 76

Consider the molecule CCc1cccc(CC)c1-c1cc(OC)c2c(n1)CCCC2N(C)c1ccc(OC)cc1C (centres unmarked) . State its measured inhibition at 10 µM. 81
